- assay.system: Sodium channel protein type 5 subunit alpha (Homo sapiens, UniProt Q14524)
- Sequence (Q14524 whole entry): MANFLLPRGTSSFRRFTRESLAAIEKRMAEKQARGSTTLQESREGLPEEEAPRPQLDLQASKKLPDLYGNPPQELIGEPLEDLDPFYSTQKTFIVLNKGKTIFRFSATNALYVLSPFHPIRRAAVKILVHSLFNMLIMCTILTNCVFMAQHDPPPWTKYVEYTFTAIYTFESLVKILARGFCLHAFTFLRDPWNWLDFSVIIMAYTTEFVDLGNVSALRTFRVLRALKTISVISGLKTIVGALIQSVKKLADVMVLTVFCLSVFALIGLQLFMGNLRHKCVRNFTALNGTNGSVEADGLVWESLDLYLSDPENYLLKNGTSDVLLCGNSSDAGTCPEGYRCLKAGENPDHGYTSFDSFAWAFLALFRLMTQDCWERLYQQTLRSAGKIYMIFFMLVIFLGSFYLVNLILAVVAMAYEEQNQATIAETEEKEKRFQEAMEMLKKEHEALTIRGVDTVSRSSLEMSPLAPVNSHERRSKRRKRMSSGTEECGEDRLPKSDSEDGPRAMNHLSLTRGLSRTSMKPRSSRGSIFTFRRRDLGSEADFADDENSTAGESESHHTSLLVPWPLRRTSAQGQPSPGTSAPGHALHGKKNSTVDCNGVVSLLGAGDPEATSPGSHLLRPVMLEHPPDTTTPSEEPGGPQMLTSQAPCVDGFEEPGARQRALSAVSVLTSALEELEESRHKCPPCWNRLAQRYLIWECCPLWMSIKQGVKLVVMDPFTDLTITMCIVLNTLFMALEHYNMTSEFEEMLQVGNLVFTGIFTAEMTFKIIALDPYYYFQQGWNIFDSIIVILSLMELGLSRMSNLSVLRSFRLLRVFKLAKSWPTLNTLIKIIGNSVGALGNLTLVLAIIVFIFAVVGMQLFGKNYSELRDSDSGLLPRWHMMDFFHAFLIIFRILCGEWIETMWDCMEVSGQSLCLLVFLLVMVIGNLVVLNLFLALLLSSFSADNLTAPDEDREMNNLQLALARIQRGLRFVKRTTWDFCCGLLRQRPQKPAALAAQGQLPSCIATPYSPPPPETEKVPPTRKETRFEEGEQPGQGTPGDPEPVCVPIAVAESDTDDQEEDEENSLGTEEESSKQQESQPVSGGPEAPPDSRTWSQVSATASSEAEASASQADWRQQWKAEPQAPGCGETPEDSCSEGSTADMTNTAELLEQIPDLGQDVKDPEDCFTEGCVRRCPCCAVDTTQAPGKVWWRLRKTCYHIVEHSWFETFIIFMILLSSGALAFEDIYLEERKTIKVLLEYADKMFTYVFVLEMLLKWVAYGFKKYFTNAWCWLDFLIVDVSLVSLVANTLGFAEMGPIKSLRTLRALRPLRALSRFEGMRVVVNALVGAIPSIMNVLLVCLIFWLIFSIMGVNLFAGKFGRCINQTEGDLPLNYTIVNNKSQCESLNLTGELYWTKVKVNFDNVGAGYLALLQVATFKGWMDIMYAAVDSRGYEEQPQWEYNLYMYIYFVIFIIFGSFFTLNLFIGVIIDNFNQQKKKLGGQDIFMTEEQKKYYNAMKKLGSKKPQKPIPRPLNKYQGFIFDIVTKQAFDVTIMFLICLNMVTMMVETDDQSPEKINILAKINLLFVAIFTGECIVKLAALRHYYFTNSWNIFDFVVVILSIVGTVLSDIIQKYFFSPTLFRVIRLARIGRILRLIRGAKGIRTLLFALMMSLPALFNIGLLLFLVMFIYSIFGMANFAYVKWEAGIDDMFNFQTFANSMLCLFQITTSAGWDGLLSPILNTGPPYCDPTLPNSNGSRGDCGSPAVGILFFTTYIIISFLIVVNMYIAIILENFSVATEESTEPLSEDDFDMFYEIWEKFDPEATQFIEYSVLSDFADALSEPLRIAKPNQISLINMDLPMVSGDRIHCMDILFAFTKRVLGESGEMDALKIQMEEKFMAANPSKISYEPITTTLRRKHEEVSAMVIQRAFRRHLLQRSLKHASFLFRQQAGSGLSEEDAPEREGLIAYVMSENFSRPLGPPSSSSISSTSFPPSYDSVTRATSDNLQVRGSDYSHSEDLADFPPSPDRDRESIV
- protocol.details: Inhibition of human Nav1.5 expressed in HEK cells assessed as reduction in sodium current at -60 mV holding potential by PatchXpress platform based whole cell patch clamp electrophysiological assay
- Set-up: species or system HEK293
pIC50: −log10 of the molar value.

{"columns": ["compound", "pIC50"],
 "data": [
  ["O=S(=O)(Nc1ncns1)c1cc(F)c(OCC2(F)CNCCC2c2ccc(F)cc2)cc1F (stereo not given)", "< 5.00"],
  ["O=S(=O)(Nc1ncns1)c1cc(F)c(OC[C@@H]2CCNC[C@H]2c2ccc(F)cc2)cc1F (relative stereo)", 5.23],
  ["O=S(=O)(Nc1ncc(F)cn1)c1cc(F)c(OC[C@@H]2CNCC[C@H]2c2ccc(Cl)cc2)cc1F (relative stereo)", "< 5.00"],
  ["O=S(=O)(Nc1ncns1)c1cc(F)c(OC[C@@H]2CN(CC(F)(F)F)CC[C@H]2c2ccc(Cl)cc2)cc1F (relative stereo)", 5.59],
  ["O=S(=O)(Nc1ncns1)c1cc(F)c(OC[C@H]2CNCC[C@@H]2c2ccc(F)c(F)c2)cc1F (relative stereo)", "< 5.00"],
  ["O=S(=O)(Nc1ncccn1)c1cc(F)c(OC[C@@H]2CNCC[C@H]2c2ccc(Cl)cc2)cc1F (relative stereo)", "< 5.00"],
  ["O=S(=O)(Nc1ncns1)c1cc(F)c(OC[C@H]2CNCC[C@@H]2c2ccc(Cl)c(F)c2)cc1F (relative stereo)", "< 5.00"],
  ["O=S(=O)(Nc1ccncn1)c1cc(F)c(OC[C@@H]2CNCC[C@H]2c2ccc(Cl)cc2)cc1F (relative stereo)", "< 5.00"],
  ["O=S(=O)(Nc1ncns1)c1cc(F)c(OC[C@@H]2CN(CCF)CC[C@H]2c2ccc(Cl)cc2)cc1F", "< 5.00"],
  ["Cc1ccc([C@H]2CCNC[C@@H]2COc2cc(F)c(S(=O)(=O)Nc3ncns3)cc2F)cc1 (relative stereo)", "< 5.00"],
  ["O=S(=O)(Nc1nncs1)c1cc(F)c(OC[C@@H]2CNCC[C@H]2c2ccc(Cl)cc2)cc1F (relative stereo)", "< 5.00"],
  ["O=C1C[C@@H](c2ccc(F)cc2)[C@H](COc2cc(F)c(S(=O)(=O)Nc3ncns3)cc2F)CN1 (relative stereo)", "< 5.00"],
  ["O=S(=O)(Nc1ncns1)c1cc(F)c(OC[C@@H]2CCCC[C@H]2c2ccc(Cl)cc2)cc1F (relative stereo)", 4.61],
  ["O=S(=O)(Nc1ncns1)c1cc(F)c(OC[C@@H]2CNCC[C@H]2c2ccc(F)cc2)cc1F (relative stereo)", "< 5.00"],
  ["CN1CC[C@@H](c2ccc(Cl)cc2)[C@H](COc2cc(F)c(S(=O)(=O)Nc3ncns3)cc2F)C1 (relative stereo)", "< 5.00"]
]}

---

Below is a list of entries, each paired with its recorded inhibition at 10 µM value.
- assay.system: CYP3A4 (Homo sapiens, UniProt P08684)
- Sequence (P08684 whole entry): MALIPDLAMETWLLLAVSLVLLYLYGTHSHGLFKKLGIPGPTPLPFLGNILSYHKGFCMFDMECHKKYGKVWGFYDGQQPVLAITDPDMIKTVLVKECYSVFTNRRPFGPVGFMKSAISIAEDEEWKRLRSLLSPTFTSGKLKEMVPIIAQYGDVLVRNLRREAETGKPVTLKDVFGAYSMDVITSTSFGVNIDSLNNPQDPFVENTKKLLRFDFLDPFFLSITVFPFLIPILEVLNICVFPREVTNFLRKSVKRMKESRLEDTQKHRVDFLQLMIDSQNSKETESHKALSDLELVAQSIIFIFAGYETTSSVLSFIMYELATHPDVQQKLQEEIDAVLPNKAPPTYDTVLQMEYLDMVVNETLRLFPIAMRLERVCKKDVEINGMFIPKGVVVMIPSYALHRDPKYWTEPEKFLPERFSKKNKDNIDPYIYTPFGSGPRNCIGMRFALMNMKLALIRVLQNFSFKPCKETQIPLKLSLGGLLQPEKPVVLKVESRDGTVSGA
- protocol.details: Inhibition of CYP3A4 (unknown origin) using midazolam substrate at 10 uM
- Assay type: ADME
- experimental.context: probe midazolam
measurement.type: inhibition at 10 µM (%)

{"columns": ["molecule", "value.units", "obs.value"],
 "data": [
  ["O=S(=O)(Nc1ncns1)c1cc(F)c(OC[C@@H]2CNCC[C@H]2c2ccc(F)cc2)cc1F (relative stereo)", "%", 96],
  ["CC(C)(C)OC(=O)N1CC[C@@H](c2ccc(Cl)cc2)[C@H](COc2cc(F)c(S(=O)(=O)Nc3ncns3)cc2F)C1 (relative stereo)", "%", 98],
  ["O=S(=O)(Nc1ncns1)c1cc(F)c(OC[C@@H]2CNC[C@H]2c2ccc(Cl)cc2)cc1F (relative stereo)", "%", 93],
  ["O=S(=O)(Nc1ncns1)c1cc(F)c(OC[C@@H]2CN(CC(F)F)CC[C@H]2c2ccc(Cl)cc2)cc1F (relative stereo)", "%", 98],
  ["O=S(=O)(Nc1ncns1)c1cc(F)c(OC[C@@H]2CNCC[C@H]2c2ccc(Cl)cc2)cc1F (racemic)", "%", 94],
  ["O=S(=O)(Nc1ncns1)c1cc(F)c(OC[C@@H]2CNCC[C@H]2c2ccccc2)cc1F (relative stereo)", "%", 95],
  ["O=S(=O)(Nc1cccnn1)c1cc(F)c(OC[C@@H]2CNCC[C@H]2c2ccc(Cl)cc2)cc1F (relative stereo)", "%", 13]
]}
